Reported composite z-score values follow for various molecules
system: Torsin-1A (Homo sapiens) (UniProt O14656)
Sequence (O14656 whole entry, looked up): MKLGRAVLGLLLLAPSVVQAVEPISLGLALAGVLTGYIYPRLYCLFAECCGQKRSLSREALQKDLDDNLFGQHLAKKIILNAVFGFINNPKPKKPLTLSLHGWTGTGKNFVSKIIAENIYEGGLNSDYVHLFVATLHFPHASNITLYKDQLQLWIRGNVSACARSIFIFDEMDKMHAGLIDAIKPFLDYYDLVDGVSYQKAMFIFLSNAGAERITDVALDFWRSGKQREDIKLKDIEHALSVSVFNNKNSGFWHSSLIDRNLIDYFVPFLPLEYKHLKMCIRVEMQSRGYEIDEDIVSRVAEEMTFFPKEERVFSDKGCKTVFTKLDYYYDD
experiment_summary: torsin A mutant lysate binding on microarrays – cell lysate, small-molecule microarray, COS7 lysate, 635/667 nm fluorescence, primary screen (AID 1150);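 note: score pools 667 nm emission and signal to noise measuring lysate protein binding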
condition_context: COS7 hTOR1A mutant lysate, 635 nm fluorescence, higher = more signal
A bare number is all that is needed in reply.

Worked set:
[N-]=[N+]=Nc1ccccc1C[C@@]1(C(=O)NCc2ccccc2)N=C(c2ccc(OCCCO)cc2)O[C@@H]1c1ccccc1N=[N+]=[N-]: 0.388
COc1ccc(C#Cc2ccc3c(c2)[C@]2(C(=O)N3)[C@H](C(=O)O)[C@H]3C(=O)O[C@H](c4ccccc4)[C@H](c4ccccc4)N3[C@@H]2c2ccccc2OCCO)cc1: 0.643

// query Which composite z-score reading was recorded for the molecule `COc1ccc([Si](C)(C)[C@@H]2[C@@H](CC(=O)N(CCO)Cc3ccccc3)O[C@]3(C(=O)N(Cc4ccc(N5C(=O)c6cccc7cccc5c67)cc4)c4ccccc43)[C@H]2C)cc1` ?
// result 0.0705

// query Sample CC(=O)OCC1C2CC[C@H]3C(OCc4ccc(F)cc4C(F)(F)F)OC[C@]4(C)[C@H]3C2=C(CN4C(=O)OC(C)(C)C)[C@H](C)C1COC(C)=O (stereo partly drawn) — what was its composite z-score?
// result 1.67

// query Can you look up the measured composite z-score of `COc1ccc([Si](C)(C)[C@@H]2[C@@H](CC(=O)N3Cc4ccccc4C[C@H]3CO)O[C@]3(C(=O)N(Cc4ccc(N5CCOC5=O)cc4)c4ccccc43)[C@H]2C)cc1` for me?
// result 0.702

// query composite z-score value for entry `COc1ccc([Si](C)(C)[C@@H]2[C@@H](CC(=O)N3Cc4ccccc4C[C@H]3CO)O[C@]3(C(=O)N(Cc4cccc(N5CCOC5=O)c4)c4ccccc43)[C@H]2C)cc1`
// result 0.737

// query Given the entry C=C(C)[C@@H]1CC=C(C(O)C2C=CC3C(=O)N(C)C(=O)C3N2Nc2ccc([N+](=O)[O-])cc2[N+](=O)[O-])CC1 (stereo partly drawn) , report its measured composite z-score.
// result 1.14

// query Which measured composite z-score value corresponds to `CC(C)C(=C=CC[C@H](O)c1ccccc1OCCO)C[C@H](O)COCc1ccccc1` ?
// result 1.12

// query Need composite z-score of CCCCN1CC=CC23O[C@@H]4/C=C\CCCOC(=O)C4[C@H]2C(=O)N(C(CO)C(C)C)[C@@H]3C1=O (stereo partly drawn) , thanks.
// result -0.455

// query Recorded composite z-score of `COc1ccc([Si](C)(C)[C@H]2[C@H](CCO)O[C@@]3(C(=O)N(Cc4ccc(NC(=O)[C@H](C)O)cc4)c4ccccc43)[C@@H]2C)cc1` , please.
// result 0.753

// query Data request, read-out composite z-score, for `Cc1ccc(N2C(=O)c3ccccc3[C@](C)(C(=O)NCCCN(C)C)[C@@H]2c2ccc(CO)cc2)nc1`
// result -1.27

// query Which composite z-score value belongs to `CN(C)CCCC[C@@H]1NC(=O)[C@@H]2C[C@H](C(=O)NCCCCCCNC(=O)CS)[C@H](c3ccc(O)cc3)N2C1=O` ?
// result 0.702

// query Return reported composite z-score; argument: `O=C1C[C@@](C(=O)NCc2ccccc2)(c2ccc([N+](=O)[O-])cc2)[C@@H](c2ccc(CO)cc2)N1C1CCCCC1`
// result 0.812
